# measuredTarget: Sodium-dependent dopamine transporter (Homo sapiens)
# Sequence (Q01959 whole entry): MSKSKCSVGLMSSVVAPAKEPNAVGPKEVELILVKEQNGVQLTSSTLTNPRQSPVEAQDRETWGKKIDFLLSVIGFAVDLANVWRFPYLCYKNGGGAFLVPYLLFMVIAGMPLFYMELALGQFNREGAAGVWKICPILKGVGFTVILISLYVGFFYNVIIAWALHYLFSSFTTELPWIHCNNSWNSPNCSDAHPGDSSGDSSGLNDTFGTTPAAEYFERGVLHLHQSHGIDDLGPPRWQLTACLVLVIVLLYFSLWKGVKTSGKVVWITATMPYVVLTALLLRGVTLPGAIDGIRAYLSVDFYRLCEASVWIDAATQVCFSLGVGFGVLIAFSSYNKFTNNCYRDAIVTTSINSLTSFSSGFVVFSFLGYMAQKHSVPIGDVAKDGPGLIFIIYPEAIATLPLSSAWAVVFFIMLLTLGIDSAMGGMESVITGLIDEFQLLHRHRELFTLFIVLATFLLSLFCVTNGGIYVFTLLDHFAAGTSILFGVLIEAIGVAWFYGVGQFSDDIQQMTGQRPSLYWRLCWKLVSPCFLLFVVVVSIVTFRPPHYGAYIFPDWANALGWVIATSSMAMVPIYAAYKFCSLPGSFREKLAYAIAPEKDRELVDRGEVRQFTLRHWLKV
# procedureSummary: Inhibition of dopamine reuptake at DAT expressed in CHO-K1 cells
Quick reference: log10 IC50 of the listed items.
Scale: log10; quantity: IC50; unit before log: nM

Answered examples (5):
Clc1ccc([C@]23CCC[C@H]2CNC3)cc1Cl (single isomer, unassigned) = 2.15
Clc1ccc([C@@]23CCC[C@@H]2CNC3)cc1Cl = 2.09
CN1C[C@@H]2CCC[C@]2(c2ccc(Cl)c(Cl)c2)C1 (racemic) = 1.83
CN1C[C@H]2CCCC[C@@]2(c2ccc3ccccc3c2)C1 = 1.79
CN1C[C@@H]2CCCC[C@]2(c2cccc3ccccc23)C1 (racemic) = 3.12

q: Requested read-out log10 IC50, target or system Sodium-dependent dopamine transporter (Homo sapiens), entry COc1ccc([C@]23CCCC[C@H]2CN(C)C3)cc1 (racemic)
a: 3.00

---

# procedureSummary: Half life in mouse liver microsomes at 3 uM by LC-MS/MS analysis
# Assay type: ADME, Microsome
Quick reference: half-life at 3 µM of the listed items.

Clc1ccc([C@@]23CCCC[C@@H]2CNC3)cc1Cl = > 5 h
Clc1ccc(C[C@@]23CCCC[C@@H]2CNC3)cc1Cl = > 5 h

# context switch: different compound, same half-life at 3 µM
q: Entry Clc1ccc([C@]23CCCC[C@H]2CNC3)cc1Cl has what half-life at 3 µM?
a: > 5 h

---

pIC50: −log10 of the molar value.
Quick record of pIC50 values for Cytochrome P450 2C19 (Homo sapiens, UniProt P33261).

Answered examples (2):
CN1C[C@@H]2CCCC[C@]2(c2ccc(Cl)c(Cl)c2)C1 = < 4.60
Clc1ccc([C@]23CCCC[C@H]2CNC3)cc1Cl = < 4.60

# context switch: different molecule, same pIC50
q: Entry CCN1C[C@@H]2CCCC[C@]2(c2ccc(Cl)c(Cl)c2)C1 (single isomer, unassigned) has what pIC50?
a: < 4.60

---

# measuredTarget: UniProt:Q12809
# Sequence (Q12809 whole entry): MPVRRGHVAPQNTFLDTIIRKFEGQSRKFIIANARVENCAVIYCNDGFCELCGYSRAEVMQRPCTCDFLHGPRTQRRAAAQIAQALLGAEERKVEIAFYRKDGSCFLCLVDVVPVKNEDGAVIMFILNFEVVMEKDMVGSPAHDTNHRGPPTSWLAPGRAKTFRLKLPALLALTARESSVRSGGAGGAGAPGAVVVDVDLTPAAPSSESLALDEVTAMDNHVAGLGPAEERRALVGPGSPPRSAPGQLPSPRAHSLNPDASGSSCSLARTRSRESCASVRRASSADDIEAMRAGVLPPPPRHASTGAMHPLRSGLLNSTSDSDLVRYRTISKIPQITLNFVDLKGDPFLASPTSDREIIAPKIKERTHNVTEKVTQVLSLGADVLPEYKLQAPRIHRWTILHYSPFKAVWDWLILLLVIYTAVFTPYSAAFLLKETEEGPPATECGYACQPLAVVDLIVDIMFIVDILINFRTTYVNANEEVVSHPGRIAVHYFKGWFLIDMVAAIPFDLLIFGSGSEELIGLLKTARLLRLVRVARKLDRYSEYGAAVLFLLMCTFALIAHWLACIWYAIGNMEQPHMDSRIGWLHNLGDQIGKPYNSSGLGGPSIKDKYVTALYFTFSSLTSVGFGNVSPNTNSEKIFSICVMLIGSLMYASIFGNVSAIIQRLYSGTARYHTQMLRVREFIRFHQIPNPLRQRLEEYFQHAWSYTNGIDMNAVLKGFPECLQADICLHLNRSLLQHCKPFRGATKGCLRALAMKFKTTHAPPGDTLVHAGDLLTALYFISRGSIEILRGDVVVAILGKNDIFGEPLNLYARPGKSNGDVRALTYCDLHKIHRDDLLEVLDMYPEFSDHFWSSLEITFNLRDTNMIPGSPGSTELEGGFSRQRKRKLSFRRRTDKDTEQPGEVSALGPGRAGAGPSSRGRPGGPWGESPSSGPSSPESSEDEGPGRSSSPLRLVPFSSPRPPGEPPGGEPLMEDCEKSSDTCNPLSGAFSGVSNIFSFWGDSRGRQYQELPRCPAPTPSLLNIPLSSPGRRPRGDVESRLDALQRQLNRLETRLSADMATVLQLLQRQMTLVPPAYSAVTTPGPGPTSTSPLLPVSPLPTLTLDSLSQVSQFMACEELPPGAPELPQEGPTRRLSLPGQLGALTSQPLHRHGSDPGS
# procedureSummary: Inhibition of human ERG expressed in CHO cells by high throughput single cell planar patch clamp method
Quick reference: IC50 of the listed items.
Provide only the numeric value, understood in µM.

Clc1ccc([C@]23CCCC[C@H]2CNC3)cc1Cl = 6.48
CN1C[C@@H]2CCCC[C@]2(c2ccc(Cl)c(Cl)c2)C1 = 2.32

# context switch: different molecule, same IC50
q: Entry CCN1C[C@@H]2CCCC[C@]2(c2ccc(Cl)c(Cl)c2)C1 (single isomer, unassigned) has what IC50?
a: 4.33

---

Quick record of IC50 values for Cytochrome P450 3A4 (Homo sapiens, UniProt P08684).

Answered examples (2):
CCN1C[C@@H]2CCCC[C@]2(c2ccc(Cl)c(Cl)c2)C1 (single isomer, unassigned) = > 5 µM
CN1C[C@H]2CCC[C@@]2(c2ccc(Cl)c(Cl)c2)C1 = > 25 µM

# context switch: different compound, same IC50
q: Requested read-out IC50, target or system Cytochrome P450 3A4 (Homo sapiens, UniProt P08684), entry Clc1ccc([C@@]23CCC[C@@H]2CNC3)cc1Cl
a: > 5 µM

---

# measuredTarget: Sodium-dependent noradrenaline transporter (Homo sapiens, UniProt P23975)
# Sequence (P23975 whole entry): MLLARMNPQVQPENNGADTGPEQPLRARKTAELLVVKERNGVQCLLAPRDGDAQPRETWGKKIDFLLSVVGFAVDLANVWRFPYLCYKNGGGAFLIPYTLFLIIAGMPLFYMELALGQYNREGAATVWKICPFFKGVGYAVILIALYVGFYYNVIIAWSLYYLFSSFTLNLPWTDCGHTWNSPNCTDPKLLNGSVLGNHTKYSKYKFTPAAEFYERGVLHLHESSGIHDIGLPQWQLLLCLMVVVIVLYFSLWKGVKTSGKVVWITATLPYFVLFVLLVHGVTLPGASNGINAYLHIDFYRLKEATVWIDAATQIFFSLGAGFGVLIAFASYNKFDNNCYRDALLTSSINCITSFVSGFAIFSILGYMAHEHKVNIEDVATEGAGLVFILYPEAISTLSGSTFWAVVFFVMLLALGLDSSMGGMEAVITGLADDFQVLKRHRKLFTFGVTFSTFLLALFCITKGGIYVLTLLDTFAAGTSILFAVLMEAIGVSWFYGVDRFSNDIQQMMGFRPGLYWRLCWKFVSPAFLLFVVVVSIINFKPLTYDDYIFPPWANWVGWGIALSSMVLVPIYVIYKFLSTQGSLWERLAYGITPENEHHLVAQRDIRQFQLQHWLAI
# procedureSummary: Inhibition of norepinephrine reuptake at NET expressed in MDCK cells
pIC50: −log10 of the molar value.
Rule: Condition met for pIC50 not less than 6, Condition not met for anything less.

CN1C[C@@H]2CCCC[C@]2(c2ccc(F)c(F)c2)C1 (racemic) = Condition not met

q: Assess whether reported pIC50 for CN1C[C@@H]2CCC[C@]2(c2ccc(F)c(F)c2)C1 (racemic) sits at 6 or higher.
a: Condition not met

q: Repeat for the following compound: Clc1ccc([C@@]23CCC[C@@H]2CNC3)cc1Cl
a: Condition met
